- testedOn: Transcription factor Sp1 (Homo sapiens) (UniProt P08047)
- Sequence (P08047 whole entry, looked up): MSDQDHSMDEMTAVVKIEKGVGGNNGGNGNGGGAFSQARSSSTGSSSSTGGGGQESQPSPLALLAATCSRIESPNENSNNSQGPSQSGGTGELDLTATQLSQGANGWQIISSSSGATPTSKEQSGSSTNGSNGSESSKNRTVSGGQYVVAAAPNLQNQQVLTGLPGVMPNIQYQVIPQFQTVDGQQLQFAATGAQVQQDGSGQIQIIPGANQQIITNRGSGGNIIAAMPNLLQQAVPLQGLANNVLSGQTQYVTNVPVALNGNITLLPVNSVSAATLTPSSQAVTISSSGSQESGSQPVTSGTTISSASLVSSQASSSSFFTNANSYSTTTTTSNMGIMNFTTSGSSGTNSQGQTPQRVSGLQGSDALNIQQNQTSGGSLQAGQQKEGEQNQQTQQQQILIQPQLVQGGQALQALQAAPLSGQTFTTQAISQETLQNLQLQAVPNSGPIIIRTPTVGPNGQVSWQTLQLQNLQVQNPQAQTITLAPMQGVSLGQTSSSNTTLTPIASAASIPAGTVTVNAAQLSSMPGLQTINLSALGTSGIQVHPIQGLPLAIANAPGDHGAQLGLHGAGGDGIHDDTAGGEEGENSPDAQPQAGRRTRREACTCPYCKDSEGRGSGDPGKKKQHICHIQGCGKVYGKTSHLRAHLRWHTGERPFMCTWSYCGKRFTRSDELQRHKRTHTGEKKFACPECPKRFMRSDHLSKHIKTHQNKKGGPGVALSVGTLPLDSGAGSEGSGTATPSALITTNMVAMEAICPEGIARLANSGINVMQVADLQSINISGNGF
- testDescription: ATG_Sp1_CIS: Attagene CIS-FACTORIAL HepG2 Assay for human Specificity Protein 1 (Sp1) (AID 2282961)
- conditionsUsed: HepG2 Sp1 cis-reporter transcription, actives raise or lower the signal
- Method: ATG_CIS is a cell-based, multiplexed-readout assay that uses HepG2, a human liver cell line, with measurements taken at 24 hours after chemical dosing in a 24-well plate.ATG_Sp1_CIS is one of 52 assay component(s) measured or calculated from the ATG_CIS assay. […] This assay endpoint, ATG_Sp1_CIS, was analyzed with bidirectional fitting relative to DMSO as the negative control and baseline of activity. […]
Active and inactive are the calls of the source. How the source made its calls: active means hit-call score of the fitted dose curve at least 0.9, where 1 is the maximum; inactive means score below 0.9.
Pick from active, inactive when you respond.

- compound: "CCOC(=O)COc1cc(-n2ncc(C(F)(F)F)c(C)c2=O)c(F)cc1Cl"
  labelValue: "inactive"
- compound: "CCOC(=O)NCCOc1ccc(Oc2ccccc2)cc1"
  labelValue: "inactive"
- compound: "OB(O)O"
  labelValue: "inactive"
- compound: "C[C@]12C[C@H](O)[C@H]3[C@@H](CCC4=CC(=O)CC[C@@]43C)[C@@H]1CC[C@@H]2C(=O)CO"
  labelValue: "inactive"
- compound: "CCN(CC)C(=O)c1cccc(C)c1"
  labelValue: "inactive"
- compound: "COCCO"
  labelValue: "inactive"

Outcome? C=CCOC(Cn1ccnc1)c1ccc(Cl)cc1Cl (configuration not stated)
inactive

Queued: `Oc1ccc(C(c2ccc(O)cc2)C(Cl)(Cl)Cl)cc1`
inactive

Queued: `CC(=O)[C@H]1CC[C@H]2[C@@H]3CCC4=CC(=O)CC[C@]4(C)[C@H]3CC[C@]12C`
inactive

Queued: `CCOC(=O)c1ccc(O)cc1`
inactive

Queued: `O=C(O)c1ccccc1`
inactive

====

- testDescription: ATG_Hpa5_TRANS: Attagene TRANS-FACTORIAL HepG2 Assay for human GAL4-Hpa5 Hepatocyte Transcription Factor Basal Promoter (AID 2282975);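 further: hits are increases in reporter mRNA over DMSO baseline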
- conditionsUsed: HepG2 Attagene GAL4-Hpa5 transcription reporter
- Procedure: ATG_TRANS is a cell-based, multiplexed-readout assay that uses HepG2, a human liver cell line, with measurements taken at 24 hours after chemical dosing in a 24-well plate.ATG_Hpa5_TRANS is one of 30 assay component(s) measured or calculated from the ATG_TRANS assay. […] This assay endpoint, ATG_Hpa5_TRANS, was analyzed in the positive analysis fitting direction relative to DMSO as the negative control and baseline of activity. […]
Inconclusive results are not listed. Calls of active or inactive are those of the source. Rule for the calls: active = hit-call score of the fitted dose curve at least 0.9, where 1 is the maximum; inconclusive = response in the unintended direction; inactive = score below 0.9.
measureName: outcome

# annotated cases, reported outcome shown
- molecule: "COC(=O)CSc1cc(N=c2sc(=O)n3n2CCCC3)c(F)cc1Cl"
  measureName: "outcome"
  observedMeasurement: "inactive"
- molecule: "CCN(CC)C(=O)c1cccc(C)c1"
  measureName: "outcome"
  observedMeasurement: "inactive"
- molecule: "CCOC(=O)C(C)Oc1ccc(Oc2nc3ccc(Cl)cc3o2)cc1 (stereo not given)"
  measureName: "outcome"
  observedMeasurement: "inactive"
- molecule: "Oc1ccc(C(c2ccc(O)cc2)C(Cl)(Cl)Cl)cc1"
  measureName: "outcome"
  observedMeasurement: "inactive"

Moving on to another molecule below.
Bench note: what outcome did CCCCC(CC)COC(=O)c1ccccc1C(=O)O (stereo not given) show?
inactive
